Test: Thermal stability assessment by nanoDSC
Assay type: physicochemical
Details: 1 mg/mL in PBS, scan 25-100° C. at 1° C./min, major transition

{"molecule": "SEQ ID NO: 34: optimized CTGF-binding hNGAL lipocalin mutein (protein, lipocalin mutein) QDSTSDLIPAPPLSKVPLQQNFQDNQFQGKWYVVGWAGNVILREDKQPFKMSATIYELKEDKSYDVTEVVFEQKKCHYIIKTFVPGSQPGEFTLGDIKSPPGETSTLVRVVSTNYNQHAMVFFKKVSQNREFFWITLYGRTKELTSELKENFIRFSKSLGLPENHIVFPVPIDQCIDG", "units label": "°C", "TM": 82}
{"molecule": "SEQ ID NO: 6: optimized CTGF-binding hNGAL lipocalin mutein (protein, lipocalin mutein) QDSTSDLIPAPPLSKVPLQQNFQDNQFQGKWYVVGRAGNNQLREDKSPPKMWATIYELKEDKSYDVTHVHFSTKKCRYIIDTFVPGSQPGEFTAGAIKSGPGLTSPLVRVVSTNYNQHAMVFFKWVTQNREWFTITLYGRTKELTSELKENFIRFSKSLGLPENHIVFPVPIDQCIDG", "units label": "°C", "TM": 66}
{"molecule": "SEQ ID NO: 25: parent CTGF-binding hNGAL lipocalin mutein (protein, lipocalin mutein) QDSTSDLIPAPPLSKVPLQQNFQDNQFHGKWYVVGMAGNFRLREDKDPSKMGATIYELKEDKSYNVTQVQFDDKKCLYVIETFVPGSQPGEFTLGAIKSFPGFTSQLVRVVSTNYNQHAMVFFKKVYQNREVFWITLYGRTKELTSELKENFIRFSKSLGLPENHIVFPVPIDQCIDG", "units label": "°C", "TM": 66}

meta.source: patent US20240228562A1
